Recorded values, source patent US20180162862A1.

Reported pIC50 values are given for each entry in this list.
- assay-target: S. aureus SgtB (SgtB ΔTM) (Staphylococcus aureus)
- Construct: SgtB ΔTM of S. aureus; made in house
- method-summary: Dose-dependent displacement of probe CMG121 from S. aureus SgtB by fluorescence polarization
- Format: binding
- test-conditions: Figure 10F; 75 nM CMG121, 1.0-1.5 μM SgtB, pH 8.0, 30 min at 4° C.; read-out: SgtB (FP, probe CMG121 displacement) IC50
pIC50: −log10 of the molar value.

Cc1ccc(OCCCSc2nc(-c3ccc(C(C)(C)C)cc3)nc3cc(=O)[nH]n23)cc1C [Compound 1882F04]
4.59
Cc1ccc(-c2nc(SCCOc3ccccc3C)n3[nH]c(=O)cc3n2)cc1 [Compound 1882P19]
< 3.70

// switching to the query compound
Entry Cc1ccc(C(C)C)c(OCCSc2nc(-c3ccccc3F)nc3cc(=O)[nH]n23)c1 [Compound 1882J21] — recorded pIC50 = < 3.70

###

- assay-target: S. aureus SgtB (Staphylococcus aureus)
- method-summary: Dose-dependent displacement of probe CMG121 from S. aureus SgtB by fluorescence polarization
- Assay type: binding
- Design: made in house
measured-parameter: IC50 (µM)
Please give a number only; it is taken to be in µM.

Cc1ccc(CSc2nc(-c3ccc(C(C)(C)C)cc3)nc3cc(=O)[nH]n23)cc1 [Entry 9]
112

Turning to the following molecule.
Lab note: measured IC50 of CC(C)(C)c1ccc(-c2nc(O)n3[nH]c(=O)cc3n2)cc1 [Entry 18] was 34

###

- Test system: MSSA Newman
- method-summary: MIC test in TSB medium with MTT staining, MSSA Newman
- Format: cell-based, Staphylococcus aureus
- test-conditions: Staphylococcus aureus; TSB, 37° C., MTT staining after 24 h; read-out: MSSA Newman MIC at 24 h
measured-parameter: MIC

Below, 5 compounds whose answers are already recorded.
CC(C)(C)c1ccc(-c2nc3cc(=O)[nH]n3c(=S)[nH]2)cc1 [Example 1]
12.5 µg/mL
CCCCNc1nc(-c2ccc(C)cc2)nc2cc(=O)[nH]n12 [Example 70]
> 100 µg/mL
Cc1ccc(OCCCNc2nc(-c3ccc(C(C)(C)C)cc3)nc3cc(=O)[nH]n23)cc1C [Example 49]
6.2 µg/mL
CCCCNc1nc(-c2ccc(C(C)(C)C)cc2)nc2cc(=O)[nH]n12 [Example 16]
12.5 µg/mL
CC(C)(C)c1ccc(-c2nc(NCCCOc3cnc(Cl)nc3)n3[nH]c(=O)cc3n2)cc1 [Example 52]
25 µg/mL

Entry under test: Cc1cccc(OCCCNc2nc(-c3ccc(C(C)(C)C)cc3)nc3cc(=O)[nH]n23)c1C [Example 30] . Its MIC was 6.2 µg/mL

Cc1cc(NCCCNc2nc(-c3ccc(C(C)(C)C)cc3)nc3cc(=O)[nH]n23)ccc1Cl [Example 47] has a reported MIC of 3.1 µg/mL

###

- Test system: MSSA Newman
- method-summary: MIC test in TSB medium with MTT staining, MSSA Newman
- Type: cell-based, Staphylococcus aureus
- test-conditions: Staphylococcus aureus; TSB, 37° C., MTT staining after 7 h; read-out: MSSA Newman MIC at 7 h
# label = condition met if MIC < 10 µg/mL else condition not met

CC(C)(C)c1ccc(-c2nc(N)n3[nH]c(=O)cc3n2)cc1 [Example 37]
condition not met
Cc1ccc(-c2nc(NCCCNc3ccc(Cl)c(C)c3)n3[nH]c(=O)cc3n2)cc1 [Example 68]
condition met
Cc1cc(OCCNc2nc(-c3ccc(C(C)(C)C)cc3)nc3cc(=O)[nH]n23)ccc1Cl [Example 46]
condition not met
CCCCNc1nc(-c2ccc(C)cc2)nc2cc(=O)[nH]n12 [Example 70]
condition not met
CC(C)(C)c1ccc(-c2nc(O)n3[nH]c(=O)cc3n2)cc1 [Example 38]
condition not met
COCCCNc1nc(-c2ccc(C(C)(C)C)cc2)nc2cc(=O)[nH]n12 [Example 27]
condition not met
Cc1ccnc(C)c1OCCCNc1nc(-c2ccc(C(C)(C)C)cc2)nc2cc(=O)[nH]n12 [Example 53]
condition not met
Cc1cc(OCCCNc2nc(-c3ccc(C(C)(C)C)cc3)nc3cc(=O)[nH]n23)ccc1Cl [Example 14]
condition met

// next entry
Identify whether the compound CC(C)(C)c1ccc(-c2nc(NCCCCc3ccccc3)n3[nH]c(=O)cc3n2)cc1 [Example 29] records MIC below 10 µg/mL.
condition met
